# tgt: IRAK4 (Homo sapiens, UniProt Q9NWZ3)
# protocol_summary: 2-hour 1 mM ATP IRAK4 Biochemical assay (as above, but with 100 pM IRAK4 and 1 mM ATP)
# details: IRAK4 MSD BIOCHEMICAL (1 mM ATP) IC50 (μM), 100 pM IRAK4, 2 hours
Structures can show the parent of a compound that is named as a salt.
readout: IC50 (µM)
Unit µM implied. Number only.

Previously resolved entries follow.
{"compound": "CCOc1cc2nc(C3CCOCC3)cn2cc1NC(=O)c1cccc(C(F)F)c1 [Example 228]", "IC50 / µM": 0.056}
{"compound": "Cc1nc(C(=O)Nc2cn3cc(C45COC(C)(C4)C5)nc3cc2OC(C)C)co1 [Example 529]", "IC50 / µM": 0.001}
{"compound": "CCOc1cc(NC(=O)c2cccc(C(F)(F)F)n2)cn2cc(C3CCOCC3)nc12 [Example 415, hydrochloride]", "IC50 / µM": 0.033}
{"compound": "CCOc1cc2nc(C3(O)CCOCC3)cn2cc1NC(=O)c1cccc(C(F)F)n1 [Example 90]", "IC50 / µM": 0.004}
{"compound": "O=C(Nc1cn2cc(C3CCOCC3)nc2cc1OCCC1CCOC1)c1cccc(C(F)F)n1 (centres unmarked) [Example 195]", "IC50 / µM": 0.002}
{"compound": "CC(C)Oc1cc2nc(C(F)F)cn2cc1NC(=O)c1ccn(C(F)F)n1 [Example 267]", "IC50 / µM": 0.002}
{"compound": "CCOc1cc2nc(C3CCN(C)C3=O)cn2cc1NC(=O)c1cccc(C(F)F)n1 (centres unmarked) [Example 156]", "IC50 / µM": 0.003}

Now take the following compound into account.
Entry CC(C)Oc1nc(NC(=O)c2cccc3ncnn23)cn2cc(C34COC(C)(C3)C4)nc12 [Example 480] under IRAK4 (Homo sapiens, UniProt Q9NWZ3) had IC50 of 0.005

----------
# tgt: IRAK4 (Homo sapiens, UniProt Q9NWZ3)
# protocol_summary: 2-hour 1 mM ATP IRAK4 Biochemical assay (as above, but with 100 pM IRAK4 and 1 mM ATP)
# details: IRAK4 MSD BIOCHEMICAL (1 mM ATP) IC50 (μM), 100 pM IRAK4, 2 hours
readout: IC50 (µM)
Unit µM implied. Number only.

{"compound": "COc1c(Cl)c(NC(=O)c2cccc(C(F)F)n2)cn2cc(C3CCOCC3)nc12", "readout": "IC50", "value_unit": "µM", "quantitative_result": 0.031}
{"compound": "CCOc1nc2nc(C3CCOCC3)cn2cc1NC(=O)c1cccc(C(F)F)n1", "readout": "IC50", "value_unit": "µM", "quantitative_result": 0.002}
{"compound": "COc1nc2nc(C34CC(F)(C3)C4)cn2cc1NC(=O)c1cccc(C(F)F)n1 [Example 566, 2,2,2-trifluoroacetate]", "readout": "IC50", "value_unit": "µM", "quantitative_result": 0.054}
{"compound": "CC12CC(c3cn4cc(NC(=O)c5coc(C6CC6)n5)nc(OC5CCC5)c4n3)(CO1)C2", "readout": "IC50", "value_unit": "µM", "quantitative_result": 0.006}
{"compound": "CCOc1cc2nc(C3CCOCC3)cn2cc1NC(=O)c1csc(C(F)(F)F)n1", "readout": "IC50", "value_unit": "µM", "quantitative_result": 0.007}

GET /value?item= COc1ncccc1C(=O)Nc1cn2cc(C34COC(C)(C3)C4)nc2c(F)c1OC(C)C &field=IC50 returns 0.01

GET /value?item= Cn1ccc(C(=O)Nc2cn3cc(C45COC(C)(C4)C5)nc3cc2C(F)F)n1 [Example 390, 2,2,2-trifluoroacetate] &field=IC50 returns 0.072

GET /value?item= Cn1ccc(C(=O)Nc2cc(OC(F)F)c3nc(C45COC(C)(C4)C5)cn3c2)n1 [Example 423, 2,2,2-trifluoroacetate] &field=IC50 returns 0.092

----------
# tgt: UniProt Q9NWZ3
# protocol_summary: 2-hour 10 μM ATP Biochemical Assay (MesoScale Detection format; IRAK4 phosphorylation of biotin labeled IRAK1 activation loop peptide)
# details: IRAK4 MSD BIOCHEMICAL (10 μM ATP) IC50 (μM), 1 nM IRAK4, 2 hours
Quick reference: IC50 of the listed items.
Unit µM implied. Number only.

Previously resolved entries follow.
{"compound": "COc1cc(NC(=O)c2cccc(C(F)F)n2)cn2cc(CC3CCOCC3)nc12", "tgt": "UniProt Q9NWZ3", "value_unit": "µM", "IC50": 0.004}
{"compound": "CCOc1cc2nc(C34CC(C#N)(C3)C4)cn2cc1NC(=O)c1cccc(C(F)(F)F)n1 [Example 521, 2,2,2-trifluoroacetate]", "tgt": "UniProt Q9NWZ3", "value_unit": "µM", "IC50": 0.001}
{"compound": "COc1cc(NC(=O)c2cccc(C(F)F)n2)cn2cc(C3CC4CCC(C3)O4)nc12 (stereo not shown) [Example 509, 2,2,2-trifluoroacetate]", "tgt": "UniProt Q9NWZ3", "value_unit": "µM", "IC50": 0.002}
{"compound": "COc1nc(NC(=O)c2cccc(C(F)(F)F)n2)cn2cc(C3CCOCC3)nc12 [Example 451, 2,2,2-trifluoroacetate]", "tgt": "UniProt Q9NWZ3", "value_unit": "µM", "IC50": 0.029}
{"compound": "CCOc1cc2nc([C@H]3C[C@@H]3F)cn2cc1NC(=O)c1cccc(C(F)F)n1 (stereo in doubt)", "tgt": "UniProt Q9NWZ3", "value_unit": "µM", "IC50": 0.002}
{"compound": "CCOc1cc2nc(C3CCOCC3)cn2cc1NC(=O)c1cccc(OC2CCC2)n1", "tgt": "UniProt Q9NWZ3", "value_unit": "µM", "IC50": 0.006}

Now take the following compound into account.
GET /value?item= CCOc1cc2nc(C3CC3)cn2cc1NC(=O)c1cncc(C(F)(F)F)n1 &field=IC50 returns 0.028

----------
# tgt: IRAK4 (Homo sapiens, UniProt Q9NWZ3)
# protocol_summary: 2-hour 10 μM ATP Biochemical Assay (MesoScale Detection format; IRAK4 phosphorylation of biotin labeled IRAK1 activation loop peptide)
# details: IRAK4 MSD BIOCHEMICAL (10 μM ATP) IC50 (μM), 1 nM IRAK4, 2 hours
Quick reference: log10 of IC50 of the listed items.
Scale type: logarithmic (base 10). Underlying IC50 unit: µM.

GET /value?item= O=C(Nc1ccc2nc(C3CCOCC3)cn2c1)c1cccc(C(F)F)n1 &field=log10 of IC50 returns -1.82

GET /value?item= CCOc1cc2nc(C3CCN(C(C)=O)C3)cn2cc1NC(=O)c1cccc(C(F)(F)F)n1 (stereo not drawn) &field=log10 of IC50 returns -3.00

GET /value?item= CC1(COc2cc3nc(C4CCOCC4)cn3cc2NC(=O)c2cccc(C(F)(F)F)n2)COC1 &field=log10 of IC50 returns -2.70

----------
# tgt: IRAK4 (Homo sapiens, UniProt Q9NWZ3)
# protocol_summary: 2-hour 1 mM ATP IRAK4 Biochemical assay (as above, but with 100 pM IRAK4 and 1 mM ATP)
# details: IRAK4 MSD BIOCHEMICAL (1 mM ATP) IC50 (μM), 100 pM IRAK4, 2 hours
readout: IC50 (µM)
Unit µM implied. Number only.

Previously resolved entries follow.
{"compound": "CCOc1cc2nc(CC)cn2cc1NC(=O)c1ccn(C(F)F)n1", "IC50 / µM": 0.027}
{"compound": "CC(C)Oc1nc2nc(C34COC(C)(C3)C4)cn2cc1NC(=O)c1ccnc2ccnn12", "IC50 / µM": 0.007}
{"compound": "CCOc1nc(NC(=O)c2cccc(C(F)F)n2)cn2cc(C34COC(C)(C3)C4)nc12", "IC50 / µM": 0.004}
{"compound": "COc1nc(NC(=O)c2cccc(C(F)(F)F)n2)cn2cc(C3CCCOC3)nc12 (single isomer, unassigned) [Example 300]", "IC50 / µM": 0.005}
{"compound": "COc1ncccc1C(=O)Nc1cn2cc(C34COC(C)(C3)C4)nc2nc1OC1CC1 [Example 505, 2,2,2-trifluoroacetate]", "IC50 / µM": 0.007}

GET /value?item= COc1nc(NC(=O)c2cccc(C(F)(F)F)n2)cn2cc(C3CCCOC3)nc12 (single isomer, unassigned) [Example 299] &field=IC50 returns 0.007

GET /value?item= CCOc1cc2nc(C(C)(C)C#N)cn2cc1NC(=O)c1csc(C)n1 &field=IC50 returns 0.041

----------
# tgt: UniProtKB Q9NWZ3
# Sequence (Q9NWZ3 1-460): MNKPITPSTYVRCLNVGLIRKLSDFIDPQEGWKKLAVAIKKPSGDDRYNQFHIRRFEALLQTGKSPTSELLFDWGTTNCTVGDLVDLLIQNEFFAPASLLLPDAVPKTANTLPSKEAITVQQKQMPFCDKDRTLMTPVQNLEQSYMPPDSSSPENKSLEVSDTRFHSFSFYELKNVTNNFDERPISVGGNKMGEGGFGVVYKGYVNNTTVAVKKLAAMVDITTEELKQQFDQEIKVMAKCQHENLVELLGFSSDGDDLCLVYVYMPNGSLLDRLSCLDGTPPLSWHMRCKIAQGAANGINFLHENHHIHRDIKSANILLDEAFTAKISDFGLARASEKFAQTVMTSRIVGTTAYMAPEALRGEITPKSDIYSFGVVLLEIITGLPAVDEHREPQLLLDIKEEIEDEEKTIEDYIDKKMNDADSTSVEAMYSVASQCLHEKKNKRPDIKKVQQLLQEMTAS
# protocol_summary: 2-hour 10 μM ATP Biochemical Assay (MesoScale Detection format; IRAK4 phosphorylation of biotin labeled IRAK1 activation loop peptide)
# details: IRAK4 MSD BIOCHEMICAL (10 μM ATP) IC50 (μM), 1 nM IRAK4, 2 hours
readout: IC50 (µM)
Unit µM implied. Number only.

Previously resolved entries follow.
{"molecule": "CCOc1cc2nc(C3CC(F)(F)C3)cn2cc1NC(=O)c1cccc(C(F)(F)F)n1 [Example 33]", "value_unit": "µM", "IC50": 0.003}
{"molecule": "CCOc1cc2nc(C3CC3)cn2cc1NC(=O)c1cccc(OC(F)(F)F)n1 [Example 118]", "value_unit": "µM", "IC50": 0.063}
{"molecule": "CCOc1cc2nc(C34CC(C(F)F)(C3)C4)cn2cc1NC(=O)c1cccc(C(F)(F)F)n1 [Example 522, 2,2,2-trifluoroacetate]", "value_unit": "µM", "IC50": 0.001}
{"molecule": "CCOc1cc2nc(C3CCOCC3)cn2cc1NC(=O)c1ccn2c1CCCC2 [Example 222]", "value_unit": "µM", "IC50": 0.01}
{"molecule": "CCOc1cc2nc(C3CCOCC3)cn2cc1NC(=O)c1cccc(C(C)(F)F)n1 [Example 227]", "value_unit": "µM", "IC50": 0.001}

Entry CC1(COc2cc3nc(CC4CCOC4)cn3cc2NC(=O)c2cccc(C(F)(F)F)n2)COC1 (centres unmarked) [Example 163] under UniProtKB Q9NWZ3 had IC50 of 0.002

Entry COCCCc1cn2cc(NC(=O)c3cccc(C(F)F)n3)ccc2n1 [Example 234] under UniProtKB Q9NWZ3 had IC50 of 0.011

Entry CCOc1cc2nc(C(F)C3CCOC3)cn2cc1NC(=O)c1cccc(C(F)(F)F)n1 (mixture of isomers) [Example 142] under UniProtKB Q9NWZ3 had IC50 of 0.001

Entry source: patent US20220089592A1
